Assay: P. aeruginosa biofilm formation inhibitors, primary screen, PAO1 strain, BacTiter-Glo luminescence, LB-PBS (AID 1144)
Settings: 12 h, higher = more signal
measured_attribute: z-score
Give your answer as a number; write no unit.

These solved cases illustrate the format of a correct answer.
Q. For the compound CCOC(=O)C[C@H]1[C@H](OC(=O)c2ccc(C(=O)c3ccccc3)cc2)[C@@H](NC(=O)CC(C)C)c2cc(OCCCO)ccc2N1C(=O)c1ccc2ccccc2n1 , report z-score.
A. -1.04

Q. For the compound CCOC(=O)C[C@H]1[C@H](OC(=O)c2ccc(C(=O)c3ccccc3)cc2)[C@@H](NC(=O)c2ccc3ccccc3c2)c2cc(OCCCO)ccc2N1C(=O)Cc1ccc(OC)cc1 , report z-score.
A. -0.329

Q. For the compound CC(C)C[C@@H]1NC(=O)[C@@H]2C[C@H](C(=O)NCc3ccc(F)cc3)[C@H](c3cccc(OCCO)c3)N2C1=O , report z-score.
A. -1.53

Query compound follows.
Q. For the compound C=C(COC)/C(=C/C[C@@H](OC(C)=O)c1ccc(OCCO)cc1)c1cnc2ccccc2c1 , report z-score.
A. -0.826

---

Assay: CREB reporter modulators without forskolin, primary screen, cell-based, PC12, CRE-LacZ reporter, unstimulated (AID 1145)
Conditions: no forskolin, luminescence, 4.5 h, higher = more signal, called active from +8 up or from −8 down
Mark True for reported z-score of 0.2 or greater; mark False for anything smaller.

Q. # bool: z-score of COc1ccc([Si](C)(C)[C@H]2[C@H](CC(=O)N3Cc4ccccc4C[C@H]3CO)O[C@@]3(C(=O)N(Cc4cccc(N5CCC5=O)c4)c4ccccc43)[C@@H]2C)cc1 >= 0.2
A. True

New cases:
Q. # bool: z-score of CCOC(=O)C[C@H]1[C@H](OC(=O)c2ccc(C(=O)c3ccccc3)cc2)[C@@H](NC(=O)c2ccccc2)c2cc(OCCCO)ccc2N1C(=O)Cc1ccc(OC)cc1 >= 0.2
A. True

Q. # bool: z-score of CN1C(=O)C2C=CC(C(O)C#Cc3ccccc3)N(N3CCCCC3)C2C1=O (stereo unspecified) >= 0.2
A. True

Q. # bool: z-score of COc1ccc(CCNC(=O)[C@@]2(Sc3ccc(C)cc3)CC(=O)N(C(C)C)[C@@H]2c2ccc(CO)cc2I)cc1 >= 0.2
A. False

Q. # bool: z-score of COCCOC(=O)N1C(=O)[C@@]2(c3cc(C#CCC(C(=O)OC)C(=O)OC)ccc31)[C@H](C(=O)N1CCN(c3ncccn3)CC1)[C@H]1C(=O)O[C@H](c3ccccc3)[C@H](c3ccccc3)N1[C@@H]2c1ccccc1OCCO >= 0.2
A. False

Q. # bool: z-score of COc1ccc(CCNC(=O)[C@@]2(Sc3ccc(C)cc3)CC(=O)N(C3Cc4ccccc4C3)[C@@H]2c2ccc(CO)cc2I)cc1 >= 0.2
A. True

---

Test: A549 cell viability effects, profiling panel, calcein-AM fluorescence, 48 h, basal (AID 1162); note: test concentration not given here
Settings: higher = more signal
This section presents compounds with their documented z-score values.
Give your answer as a number; write no unit.

Q. For the compound C[N+](C)(C)CCCC[C@@H]1NC(=O)[C@H]2C[C@@H](C(=O)NCCCCCCNC(=O)CS)[C@@H](c3cccc(OCCO)c3)N2C1=O , report z-score.
A. -1.42

Q. For the compound C=CCN1C(=O)[C@]2(O[C@H](CCn3cc([C@H](O)c4ccccc4)nn3)[C@@H]([Si](C)(C)c3ccc(OC)cc3)[C@@H]2C)c2ccccc21 , report z-score.
A. -0.366

Q. For the compound CN(C)CCCCCCNC(=O)[C@H]1C[C@H]2C(=O)N[C@@H](CCCCN)C(=O)N2[C@H]1c1cccc(OCCO)c1 , report z-score.
A. -0.214

New cases:
Q. For the compound CC(C)=CCCC(C)=CC(O)C1C=CC2C(=O)N(C)C(=O)C2N1Nc1ccccc1 (centres undefined) , report z-score.
A. -1.81

---

Assay: basal HepG2 mitochondrial membrane potential changes, profiling panel, cell-based, JC-1 fluorescence, 24 h, 100 nL compound (AID 1167); note: test concentration not given here
Conditions: higher = more signal
Mark satisfied for reported z-score of -0.4 or greater; mark not satisfied for anything smaller.

Q. # bool: z-score of COC(=O)C(CC#Cc1ccc2c(c1)[C@]1(C(=O)N2)[C@H](C(=O)Nc2nc3ccccc3s2)[C@H]2C(=O)O[C@H](c3ccccc3)[C@H](c3ccccc3)N2[C@@H]1c1ccc(O)cc1)C(=O)OC >= -0.4
A. not satisfied

Q. # bool: z-score of C=CCOC(=O)[C@H]1[C@@H]2C(=O)O[C@@H](c3ccccc3)[C@@H](c3ccccc3)N2[C@@H](c2ccc(OCCOC(=O)[C@H]3C[C@H]4C(=O)N[C@@H](CCCCNC(C)=O)C(=O)N4[C@H]3c3ccc(O)cc3)cc2)[C@]12C(=O)Nc1ccc(I)cc12 >= -0.4
A. satisfied

Q. # bool: z-score of C=CCC(OC(C)=O)[C@@H]1[C@@H](N(Cc2ccc(-c3ccccc3)cc2)C(=O)Cc2ccc(OC)cc2)c2cc(OCCCO)ccc2N1C(=O)Cc1ccc2ccccc2c1 (stereo partly drawn) >= -0.4
A. satisfied

Q. # bool: z-score of C[N+](C)(C)CCCCCCNC(=O)[C@@H]1C[C@@H]2C(=O)N[C@@H](Cc3ccccc3)C(=O)N2[C@@H]1c1cccc(OCCO)c1 >= -0.4
A. not satisfied

Q. # bool: z-score of CCCCC(CC)C(O)C1C=CC2C(=O)N(Cc3ccccc3)C(=O)C2N1n1cnnc1 (stereo not drawn) >= -0.4
A. not satisfied

Q. # bool: z-score of COCCOC(=O)N1C(=O)[C@@]2(c3ccccc31)[C@H](c1ccc(O)cc1)N1[C@H](c3ccccc3)[C@H](c3ccccc3)OC(=O)[C@H]1[C@@H]2C(=O)Nc1nc2ccccc2s1 >= -0.4
A. not satisfied

Q. # bool: z-score of O=C(OCc1ccccc1)C1=CCC2c3[nH]c4ccccc4c3C(=O)C1N2S(=O)(=O)c1ccccc1[N+](=O)[O-] (stereo not drawn) >= -0.4
A. not satisfied

Q. # bool: z-score of C=CCN1C(=O)[C@]2(O[C@H](CCn3cc([C@H](O)c4ccccc4)nn3)[C@@H]([Si](C)(C)c3ccc(OC)cc3)[C@@H]2C)c2ccccc21 >= -0.4
A. not satisfied

---

This section presents compounds with their documented composite z-score values.
Molecular target: Torsin-1A-interacting protein 1 (Homo sapiens)
Assay: LAP1 binders from COS7 cell lysate, primary screen, small-molecule microarray, 635/667 nm fluorescence (AID 1116)
Details: COS7-hLAP1 lysate binding, 635 nm fluorescence, higher = more signal

These solved cases illustrate the format of a correct answer.
Q. For the compound COCCOC(=O)N1C(=O)[C@@]2(c3cc(C#CCCO)ccc31)[C@H](C(=O)N1CCCCCCC1)[C@H]1C(=O)O[C@H](c3ccccc3)[C@H](c3ccccc3)N1[C@@H]2c1ccc(OCCO)cc1 , report composite z-score.
A. 3.97

Q. For the compound COCCOC(=O)N1C(=O)[C@@]2(c3cc(C#CCC(C(=O)OC)C(=O)OC)ccc31)[C@H](C(=O)Nc1nc3ccccc3s1)[C@H]1C(=O)O[C@H](c3ccccc3)[C@H](c3ccccc3)N1[C@@H]2c1ccccc1OCCO , report composite z-score.
A. 0.886

Q. For the compound C=CCOC(=O)[C@@H]1[C@H]2C(=O)O[C@H](c3ccccc3)[C@H](c3ccccc3)N2[C@H](c2ccc(OCCOC(=O)[C@H]3C[C@H]4C(=O)N5CCC[C@H]5C(=O)N4[C@H]3c3ccc(O)cc3)cc2)[C@@]12C(=O)Nc1ccc(I)cc12 , report composite z-score.
A. 0.65

Q. For the compound CC(C)C(O)C1C=CC2C(=O)NC(=O)C2N1Nc1ccc(Cl)cc1Cl (centres undefined) , report composite z-score.
A. 1.91

Q. For the compound NCCCCCCNC(=O)[C@@H]1C[C@@H]2C(=O)NCC(=O)N2[C@@H]1c1ccc(O)cc1 , report composite z-score.
A. 0.715

New cases:
Q. For the compound O=C(CS)NCCCCCCNC(=O)[C@@H]1C[C@@H]2C(=O)N[C@@H](Cc3ccccc3)C(=O)N2[C@@H]1c1cccc(OCCO)c1 , report composite z-score.
A. 0.585

Q. For the compound C=CC(=C)[C@H]1Oc2ccccc2S(=O)(=O)N2CCC[C@@H]12 , report composite z-score.
A. -0.448

Q. For the compound COC(=O)[C@@]1(Cc2ccc(OC)cc2)[C@H]2c3cc(C(=O)N(C)C)n(Cc4ccccn4)c3C[C@H]2CN1C(=O)c1ccccc1 , report composite z-score.
A. 3.05

Q. For the compound COC(=O)[C@@]1(Cc2ccc(OC)cc2)[C@@H]2C(=CC(=O)[C@H]2CC(=O)C(=O)N2CCCC2)CN1C(=O)c1ccccc1 , report composite z-score.
A. 0.674
